Exercise: for every item that follows, state its recorded Total Cell Count.
- Test system: HEK-293T
- assay-comment: Multiplex assay against HEK293T
- Assay type: toxicity, cell-based
- condition-label: human, 12 h, 10 µM, compound concentration 10 uM, replicate 2
The answer should be a number; do not append a unit.

Q) Fill in: Total Cell Count of "Cc1ccc(NC(=O)Nc2cc(C(F)(F)F)ccc2F)cc1Nc1ccc2c(c1)NC(=O)/C2=C\c1ccc[nH]1" is ___
A) 1471

Q) # iterate: "CC(C)c1cc(Nc2nc(N3CCC[C@H](N)C3)ncc2C(N)=O)cc(C(C)C)n1"
A) 206

Q) # iterate: "CN(c1cc(C(F)(F)F)nc(OCCC(=O)O)n1)c1cccc2c1CCC2"
A) 233

Q) # iterate: "Cc1ccc(S(=O)(=O)NC2c3ccccc3Oc3ccccc32)cc1"
A) 307

Q) # iterate: "CCOC(=O)CCNc1cc(N2CCc3ccccc3CC2)nc(-c2ccccn2)n1"
A) 1158

Q) # iterate: Cl.Cn1c2c(c3ccc(Cl)c(Cl)c31)C(C#N)C1(CCNCC1)NC2=O (stereo unspecified)
A) 983

Q) # iterate: Oc1cccc(-c2nc(N3CCOCC3)c3oc4ncccc4c3n2)c1 [PI-103]
A) 172

Q) # iterate: CC(C)C[C@H](NC(=O)[C@H](Cc1ccccc1)NC(=O)CNC(=O)CNC(=O)[C@@H](N)Cc1ccc(O)cc1)C(=O)O [ENKEPHALIN]
A) 271

Q) # iterate: NC(=O)c1ccc2nc(-c3ccc(C4(N)CCC4)cc3)c(-c3ccccc3)n2n1 [BAY-1125976]
A) 1764

Q) # iterate: "Cc1c(P(=S)(c2ccccc2)c2ccccc2)n2ccccc2[n+]1C/C=C/c1ccccc1.[Br-]"
A) 192

Q) # iterate: CC(Cc1ccc(O)c(O)c1)C(C)Cc1ccc(O)c(O)c1 (stereo unspecified) [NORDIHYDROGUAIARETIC ACID]
A) 254

Q) # iterate: CC(C)[C@H](CO)Nc1nc(Nc2cccc(Cl)c2)c2ncn(C(C)C)c2n1 [PURVALANOLA]
A) 198

Q) # iterate: "C=CC(=O)Nc1cc(-n2c(=O)ccc3cnc4ccc(-c5ccc(NS(C)(=O)=O)cc5)cc4c32)ccc1C"
A) 204

Q) # iterate: N#CCNC(=O)c1ccc(-c2ccnc(Nc3ccc(N4CCOCC4)cc3)n2)cc1 [MOMELOTINIB]
A) 251

Q) # iterate: "CC(/C=C1\SC(=S)N(CCCC(=O)Nc2ccc(C(=O)O)c(O)c2)C1=O)=C\c1ccccc1"
A) 269

Q) # iterate: CC[C@H](Nc1ncnc2[nH]cnc12)c1nc2cccc(F)c2c(=O)n1-c1ccccc1 [IDELALISIB]
A) 1603
